Where do these numbers come from? They come from patent US7253286B2.

The following molecules are listed with their measured IC50 values.
Tested on: Human Umbilical Vein Endothelial Cells (HUVECs)
Assay summary: Inhibition against sandwich tube formation by vascular endothelial cells in response to stimulation by VEGF
Type: cell-based
Test context: HUVEC in collagen gel sandwich, stimulation by VEGF (25 ng/ml VEGF and 10 ng/ml EGF), 4th day, total tube length, read-out: IC50 (concentration required for 50% inhibition of tube formation)
Give the value, in units of nM, as a plain number.

Consider the following illustrative entries.
molecule=N#Cc1cc2c(Oc3ccc(NC(=O)Nc4ccc(F)cc4)c(F)c3)ccnc2cc1OC[C@H](O)CN1CCCCC1 test_target="Human Umbilical Vein Endothelial Cells (HUVECs)" assay_result=4.6
molecule=CCN(CC)CCCOc1cc2nccc(Oc3ccc(NC(=O)NC4CC4)c(Cl)c3)c2cc1C#N test_target="Human Umbilical Vein Endothelial Cells (HUVECs)" assay_result=10
molecule=COc1cc2nccc(Oc3ccc(NC(=O)NC4CC4)c(Cl)c3)c2cc1C(N)=O test_target="Human Umbilical Vein Endothelial Cells (HUVECs)" assay_result=5.4
molecule=COc1cc2nccc(Oc3ccc(NC(=O)Nc4nccs4)nc3)c2cc1OC test_target="Human Umbilical Vein Endothelial Cells (HUVECs)" assay_result=26
molecule=CN1CCC(COc2cc3nccc(Oc4ccc5c(ccn5C(=O)Nc5nccs5)c4)c3cc2C#N)CC1 test_target="Human Umbilical Vein Endothelial Cells (HUVECs)" assay_result=5.2
molecule=CCN(CC)CCCNC(=O)n1ccc2cc(Oc3ccnc4cc(OC)c(C(N)=O)cc34)ccc21 test_target="Human Umbilical Vein Endothelial Cells (HUVECs)" assay_result=56

Send back Human Umbilical Vein Endothelial Cells (HUVECs) IC50 of CN1CCCC(COc2cc3nccc(Oc4ccc(NC(=O)Nc5ccc(F)cc5)c(F)c4)c3cc2C#N)C1 (stereo not shown) only.
7.5

Send back Human Umbilical Vein Endothelial Cells (HUVECs) IC50 of CN1CCC(COc2cc3nccc(Oc4ccc(NC(=O)NC5CC5)c(Cl)c4)c3cc2C#N)CC1 only.
4.8

Send back Human Umbilical Vein Endothelial Cells (HUVECs) IC50 of CCCNC(=O)c1cc2c(Oc3ccc(NC(=O)NC4CC4)c(Cl)c3)ccnc2cc1OC only.
5.5

Send back Human Umbilical Vein Endothelial Cells (HUVECs) IC50 of COc1cc2nccc(Oc3ccc(NC(=O)NC4CC4)c(Cl)c3)c2cc1C(=O)NCCS(C)(=O)=O only.
2.8
